- assay.system: BRAF G466V (Homo sapiens, UniProt P15056, G466V)
- Construct: expressed in transfected cells
- Sequence (P15056 whole entry G466V): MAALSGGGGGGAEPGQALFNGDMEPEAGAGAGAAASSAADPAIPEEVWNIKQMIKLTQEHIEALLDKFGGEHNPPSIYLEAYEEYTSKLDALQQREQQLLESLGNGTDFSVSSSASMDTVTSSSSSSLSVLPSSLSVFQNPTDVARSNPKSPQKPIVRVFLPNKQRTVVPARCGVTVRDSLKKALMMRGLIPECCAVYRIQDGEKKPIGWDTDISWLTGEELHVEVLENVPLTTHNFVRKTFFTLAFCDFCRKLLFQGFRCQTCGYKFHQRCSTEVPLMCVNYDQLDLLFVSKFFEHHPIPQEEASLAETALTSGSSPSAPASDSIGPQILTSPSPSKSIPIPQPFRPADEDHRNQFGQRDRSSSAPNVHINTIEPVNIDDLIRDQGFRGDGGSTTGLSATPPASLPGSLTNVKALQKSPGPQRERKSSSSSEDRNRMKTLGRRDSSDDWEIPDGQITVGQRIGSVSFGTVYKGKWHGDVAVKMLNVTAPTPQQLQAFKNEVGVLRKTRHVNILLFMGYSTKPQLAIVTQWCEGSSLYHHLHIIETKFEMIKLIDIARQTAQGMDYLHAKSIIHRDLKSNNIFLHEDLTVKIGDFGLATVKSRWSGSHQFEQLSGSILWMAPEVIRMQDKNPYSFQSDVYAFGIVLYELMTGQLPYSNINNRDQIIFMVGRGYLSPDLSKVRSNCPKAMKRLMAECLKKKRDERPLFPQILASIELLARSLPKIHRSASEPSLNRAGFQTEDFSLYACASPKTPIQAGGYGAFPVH
- test.protocol: Cellular assay of target protein degradation, T-Rex 293 cells stably transfected with HA-BRAF G466V (HA immunofluorescence, high content imaging)
- Format: cell-based
- condition.label: half maximal degradation, T-Rex 293 HA-BRAF G466V; read-out: BRaf G466V DC50
Each entry below carries its recorded DC50.

Check out these entries, answers already filled in.
What DC50 value was documented for this compound, O=C1CCN(c2ccc(C3CCN(CCC4CCN(c5ccc(-c6cnc7[nH]cc(C(=O)c8c(F)ccc(NS(=O)(=O)N9CC[C@@H](F)C9)c8F)c7c6)cc5)CC4)CC3)cc2F)C(=O)N1 [Compound 199] ?
1 to 10 nM

What DC50 value was documented for this compound, O=C1CCC(N2Cc3cc(C4CCN(CC5CCN(c6ccc(-c7cnc8[nH]cc(C(=O)c9c(F)ccc(NS(=O)(=O)N%10CC[C@@H](F)C%10)c9C(F)(F)F)c8c7)cc6)CC5)CC4)ccc3C2=O)C(=O)N1 (some centres unmarked) [Compound 273] ?
10 to 30 nM

What DC50 value was documented for this compound, COc1cc(N2CCC(CN3CC4(C3)CN(c3ccc(-c5cnc6[nH]cc(C(=O)c7c(F)ccc(NS(=O)(=O)N8CC[C@@H](F)C8)c7F)c6c5)cc3)C4)CC2)ccc1C(=O)N[C@H]1CCC(=O)NC1=O [Compound 352] ?
1 to 10 nM

What DC50 value was documented for this compound, O=C1CCC(N2Cc3cc(N4CCN(C[C@H](O)Cc5ccc(-c6cnc7[nH]cc(C(=O)c8c(F)ccc(NS(=O)(=O)N9CC[C@@H](F)C9)c8F)c7c6)cc5)CC4)ccc3C2=O)C(=O)N1 (some centres unmarked) [Compound 90] ?
1 to 10 nM

Read the next record carefully.
What DC50 value was documented for this compound, CC(C)CS(=O)(=O)Nc1ccc(F)c(C(=O)c2c[nH]c3ncc(-c4ccc(N5CCC(CN6CCC(c7ccc8c(c7)CN([C@H]7CCC(=O)NC7=O)C8=O)CC6)CC5)cc4)cc23)c1F [Compound 204] ?
< 1 nM
